# Test system: MS2 coat protein
# experimental_details: apparent Kd, MS2 coat protein; higher = weaker binding; RNA-MaP array; FMN 200 µM where present
# run_conditions: designed as: OFF switch for flavin mononucleotide; no ligand
apparent Kd for assorted sequences
measurement_label: apparent Kd

>>> value_observed("AACCUAGUCAUAGGAUAUACAGGCAAAGCCAAAGUAGAAGGAUGACACAUGAGGAUCACCCAUGUGGUCCUUGAACAAAAUAAC")
"0.027 µM"
>>> value_observed("GUCCGCUCGUGAGGAUAUACAACACUGCUUCGGCAGUGUAUUAAGAUCACAUGAGGAUCACCCAUGUAGAAGGCACGAGCUGAU")
"0.0137 µM"
>>> value_observed("CGCGAAUUACAGAAGGGACAAGGGAUAAAACCCAGGUCUUGCAGUAGACAUGAGGAUCACCCAUGUCAGGAUAUGUAGAGAGUU")
"0.0172 µM"
>>> value_observed("CAGUACUGAGGAUAUACAUGAGGAUCACCCAUGUGUUCCAGCUAGGAAACUAGCAAAAGUAGAAGGUAGUACUG")
"0.0137 µM"
>>> value_observed("GUGGCAUGAGGAUAUCGAGGUUAGUACAUGAGGAUCACCCAUGUUAUCCAGGUGUCGGUUCGAGAAGGCAUGGCAC")
"0.326 µM"
>>> value_observed("UUGCCACAUGAGGAUCACCCAUGUGAGGAUAUGGCCCGUUUGGCGUGUGCUGGUUCUGUCAGAAGGCGCGUGGG")
"0.0245 µM"
>>> value_observed("UGUCGGAGCAGAGGAUAUUACAUGAGGAUCACCCAUGUAUGAACCAAUAGCUGGAAACAGCGAUGUAAGAAGGCUGCUCCGACA")
"0.0102 µM"
>>> value_observed("UGAGUGCGUGUUAGGAUAUGGUUUGGUGUUUCGGGCUAGAAGGGACAUGAGGAUCACCCAUGUAACUGGCGGGU")
"0.0533 µM"
>>> value_observed("GGAGCGGAAGGAUAUGCUGCGGGAUUGAAUGGAAAGAAAAUACAUGAGGAUCACCCAUGUAGAAGGUCCGUGAA")
"0.0182 µM"
>>> value_observed("UGAGCAUGAGGAUAUACAAGGCGUGCCGUAGCACGAGGUCUACAUGAGGAUCACCCAUGUAGAAGGCAUGUUCU")
"0.0168 µM"
>>> value_observed("AAGUCGACGGUGAGGAUAUUGGUUGAACGACAGAUUAAGAAGGUACAUGAGGAUCACCCAUGUGGGUAACGUCG")
"0.1 µM"
>>> value_observed("AAGAAGUCAGGAUAUGCUGCUCGUCACUUGCGUGAUGAGUAGCAGAAGGGACAUGAGGAUCACCCAUGUGGAGA")
"0.114 µM"
>>> value_observed("CCAGCGUGUGUGAGGAUAUGCUGGUCCUUGGAUCAGCAGAAGGCACAUGAGGAUCACCCAUGUGAGUACGUUGG")
"0.0169 µM"
>>> value_observed("GAAAACAGAGGAUAUACAUAAGCUAGACGAAAGUCUAGCAAACAUGAGGAUCACCCAUGUAGAAGGCUGAAGAA")
"0.0376 µM"
>>> value_observed("GUCAGCUCGUGAGGAUAUACAUGUGCUGGAGACAGCACUAUUAAAUUCACAUGAGGAUCACCCAUGUAGAAGGCACGAGCUGAU")
"0.0152 µM"
